target: human TLR9 (Homo sapiens, UniProt Q9NR96); test: TLR9 inhibition reporter assay (HEK-Blue SEAP); conditions: HEK-Blue cells overexpressing human TLR9, stimulated with ODN2006 5 nM, 22 hour incubation
Sequence (Q9NR96 26-1032): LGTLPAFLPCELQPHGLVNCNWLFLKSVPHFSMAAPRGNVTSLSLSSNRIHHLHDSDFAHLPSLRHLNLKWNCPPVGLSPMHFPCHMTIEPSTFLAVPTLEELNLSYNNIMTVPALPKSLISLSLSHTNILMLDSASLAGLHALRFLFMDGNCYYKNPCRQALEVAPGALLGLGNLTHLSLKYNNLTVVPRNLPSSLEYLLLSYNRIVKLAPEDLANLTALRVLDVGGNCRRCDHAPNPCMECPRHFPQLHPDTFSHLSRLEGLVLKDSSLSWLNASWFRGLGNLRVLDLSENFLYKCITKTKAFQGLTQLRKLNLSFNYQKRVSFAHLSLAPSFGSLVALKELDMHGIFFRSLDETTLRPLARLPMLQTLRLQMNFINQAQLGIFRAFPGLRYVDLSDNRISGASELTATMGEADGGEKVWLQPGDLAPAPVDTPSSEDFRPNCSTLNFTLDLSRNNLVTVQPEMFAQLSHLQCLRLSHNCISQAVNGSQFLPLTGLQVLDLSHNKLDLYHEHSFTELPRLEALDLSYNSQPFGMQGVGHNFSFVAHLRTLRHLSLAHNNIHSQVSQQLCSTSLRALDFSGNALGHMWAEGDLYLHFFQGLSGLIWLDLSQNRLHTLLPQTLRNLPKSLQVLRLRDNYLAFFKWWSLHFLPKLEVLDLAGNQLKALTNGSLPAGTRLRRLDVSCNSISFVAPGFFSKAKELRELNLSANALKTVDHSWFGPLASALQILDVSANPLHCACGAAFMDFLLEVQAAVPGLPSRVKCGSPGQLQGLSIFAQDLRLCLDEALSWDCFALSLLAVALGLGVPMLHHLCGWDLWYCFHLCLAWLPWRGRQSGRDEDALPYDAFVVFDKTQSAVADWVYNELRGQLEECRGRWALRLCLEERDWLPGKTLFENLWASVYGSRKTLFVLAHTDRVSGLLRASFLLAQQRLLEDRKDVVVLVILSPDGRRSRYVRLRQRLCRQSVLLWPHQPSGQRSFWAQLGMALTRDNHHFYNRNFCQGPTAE
The compounds listed here are annotated with their IC50.
Number only, in µM; omit the unit.

{"COMPOUND": "Cc1cc2c(OC3CCN(C)CC3)n[nH]c2cc1-c1cc(C)c2ncnn2c1", "IC50 / µM": 2.77}
{"COMPOUND": "CCc1cc(-c2cc(C)c3ncnn3c2)cc2[nH]nc(C3CCN(C(=O)CN(C)C)CC3)c12", "IC50 / µM": 3.86}
{"COMPOUND": "Cc1cc(-c2cc(C)c3ncnn3c2)cc2[nH]nc(C3CCC(N(C)C)CC3)c12 (stereo not drawn) [Example 81]", "IC50 / µM": 1.83}

Query string: Respond only with IC50 recorded for Cc1cc2c(C3CCC(NCCS(C)(=O)=O)CC3)n[nH]c2cc1-c1cc(C)c2ncnn2c1 (stereo not drawn) [Example 31]
Result string: 6.12

Query string: Respond only with IC50 recorded for CCc1cc2c(OC3CCC(N(C)C)CC3)n[nH]c2cc1-c1cc(C)c2ncnn2c1 (single isomer, unassigned) [Example 191]
Result string: 14.6

Query string: Respond only with IC50 recorded for Cc1cc(-c2cc3[nH]nc(C4CCC(N5CC6(COC6)C5)CC4)c3cc2C(C)C)cn2ncnc12 (single isomer, unassigned) [Example 129]
Result string: 7.55
